Study system: galectin-1 (Homo sapiens)
Sequence (P09382 whole entry): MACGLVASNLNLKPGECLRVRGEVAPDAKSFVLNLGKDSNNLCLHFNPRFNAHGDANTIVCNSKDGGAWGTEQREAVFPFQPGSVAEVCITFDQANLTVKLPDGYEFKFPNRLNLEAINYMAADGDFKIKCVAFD
Assay explanation: Fluorescence anisotropy assay, affinity for galectin-1
Type: binding
Experimental conditions: compound as inhibitor of the interaction between galectin and a fluorescein tagged saccharide probe; read-out: Gal-1 Kd
Measurement name: pKd
Reminder that pKd is minus the log10 of a molar concentration.

## Task # input molecule: CCc1cc([C@@H]2OC(CO)[C@H](O)C(n3cc(-c4nc(Cl)cs4)nn3)C2OC)n(-c2cc(Cl)ccc2C(F)(F)F)n1 (stereo partly drawn) [Example 30] ; wanted: its pKd
## Result 7.00

## Task # input molecule: COC1C(n2cc(-c3nc(Cl)cs3)nn2)[C@@H](O)C(CO)O[C@H]1c1cc(C#N)nn1-c1cc(Cl)ccc1C(F)(F)F (stereo partly drawn) [Example 31] ; wanted: its pKd
## Result 7.15

## Task # input molecule: Nc1nc(-c2cn(C3C(O)[C@H](c4ccnn4-c4cc(Cl)ccc4C(F)(F)F)OC(CO)[C@@H]3O)nn2)cs1 (stereo partly drawn) [Example 6] ; wanted: its pKd
## Result 6.92

Data credit: patent US20240132531A1
